Normalized average relative binding affinity(ARB) values, listed per item
- EXPERIMENTAL_TARGET: HLA B*5801 (Homo sapiens, UniProt P01889, A329T/C349S/D201E/D98Y/E176V/E187L/E204Q/E69T/G107R/I218V/I90N/K202T/L105A/L119I/N104I/N87E/Q89R/Q94S/R106L/R155S/R180L/R86G/S101N/S121R/S35A/S48A/T118I/V127L/V306I/V36M/Y140S/Y91M)
- Type: binding
Give a plain numeric answer without units written out.

XXXXXXQXX [3064.0134] ... 0.23
XXXXKXXXX [3064.0089] ... 0.11
XXXXXGXXX [3064.0106] ... 0.31
XXXXXXXAX [3064.0141] ... 0.14

Query string: Give its Normalized average relative binding affinity(ARB) value. Item: XXXXXNXXX [3064.0112]
Result string: 0.027

Query string: What about this sequence? XXXXXXLXX [3064.0130]
Result string: 1.0

Query string: What about this sequence? XXXXXXXDX [3064.0143]
Result string: 0.063

Query string: What about this sequence? XXXXHXXXX [3064.0087]
Result string: 0.21

Query string: What about this sequence? XXXXXLXXX [3064.0110]
Result string: 0.49

Query string: What about this sequence? XXXXXXXEX [3064.0144]
Result string: 0.18

Query string: What about this sequence? XXXXXMXXX [3064.0111]
Result string: 0.41

Query string: What about this sequence? XXXXXXKXX [3064.0129]
Result string: 0.037

Query string: What about this sequence? XXXXXXCXX [3064.0122]
Result string: 0.082

Query string: What about this sequence? XXXXXSXXX [3064.0116]
Result string: 0.45

Query string: What about this sequence? XXXXXXHXX [3064.0127]
Result string: 0.18

Query string: What about this sequence? XXXXXXFXX [3064.0125]
Result string: 0.018

====

- EXPERIMENTAL_TARGET: HLA A*3001 (Homo sapiens, UniProt P04439, D140H/D185E/E176W/F33S/G80R/H175R/K168Q/R138E/R41S)
- EXPERIMENTAL_PROTOCOL: biochemical
Where a SMILES comes first, the peptide text is derived from it.
MEASURED_METRIC: pIC50
The read-out pIC50 is expressed as -log10 of concentration in moles per litre.

CC[C@H](C)[C@H](NC(=O)[C@@H](N)CCCNC(=N)N)C(=O)N[C@@H](CCCNC(=N)N)C(=O)N[C@@H](CCCNC(=N)N)C(=O)N[C@@H](Cc1ccccc1)C(=O)N[C@@H](CCCNC(=N)N)C(=O)N[C@@H](CCCNC(=N)N)C(=O)N1CCC[C@H]1C(=O)N[C@@H](CCSC)C(=O)O [3102.0681] (H-RIRRFRRPM-OH) ... 8.36
CC(C)C[C@H](NC(=O)[C@H](CO)NC(=O)[C@H](CCCCN)NC(=O)[C@H](CO)NC(=O)[C@H](C)N)C(=O)N[C@@H](CCCCN)C(=O)N1CCC[C@H]1C(=O)N[C@H](C(=O)N[C@@H](CCCCN)C(=O)O)[C@@H](C)O [3102.1346] (H-ASKSLKPTK-OH) ... 7.82

Now look at this one.
Query string: Give its pIC50 value. Item: CC[C@H](C)[C@H](NC(=O)[C@@H](NC(=O)[C@@H](NC(=O)[C@@H]1CCCN1C(=O)[C@H](CCCNC(=N)N)NC(=O)[C@H](Cc1ccccc1)NC(=O)[C@H](Cc1ccccc1)NC(=O)[C@@H](NC(=O)[C@@H](N)CCCCN)[C@@H](C)CC)[C@@H](C)O)[C@@H](C)O)C(=O)O [3102.0470] (H-KIFFRPTTI-OH)
Result string: 7.77
